- System: HOP-62 NSCLC
- test: NCI tumour cell line growth inhibition, 48 h
measured_endpoint: TGI (µM)

1) Nc1nc(N)c(C=Nc2ccc(Br)cc2)c(Nc2ccc(Br)cc2)n1: 22.5
2) Cc1nc2c(o1)C(=Nc1ccccc1)c1ccccc1C2=O: 28.1
3) CCN1C(=O)CCCc2c1ccc(Nc1ncc(Cl)c(NC3[C@@H](C(N)=O)[C@@H]4C=C[C@H]3C4)n1)c2OC (stereo not given in full): 13.7

====

- Test system: ACHN renal
- test: NCI tumour cell line growth inhibition, 48 h
measured_endpoint: TGI

1. O=C(CN1CCN(c2cc3c(cc2F)c(=O)c(C(=O)O)cn3C2CC2)CC1)Nc1nc(-c2ccc(Cl)cc2)cs1: > 100 µM
2. COc1ccc2c(c1)C/C(=C\c1cccc3ccccc13)C2=O: > 100 µM
3. CCOC(=O)c1c(C)n(Cc2ccccc2)c2c1cc(O)c1[nH]c(Cc3ccccc3)nc12: > 100 µM
4. O=c1cc(-c2c[nH]c3ccccc23)[nH]c2cc3c(cc12)OCO3: > 100 µM
5. COC(=O)C1OC2(CCCC3CC32)O[C@H]1C(=O)OC (stereo not given in full): > 100 µM
6. CCC/C=C1\CCC(CN(C)C)C1=O (stereo not given): 11.2 µM
7. COc1cccc2c1-c1c(c3ccc([N+](=O)[O-])cc3c(=O)n1CCCN)C2=O: 6.65 µM
8. NC(=O)c1ccccc1NC(=O)C(=O)Cc1nc2ccccc2[nH]c1=O: > 100 µM
9. CN(C)C(=Nc1nc(=[N+](C)C)ss1)N(C)C: > 100 µM
10. O=C(CSc1ncn[nH]1)C[P+](c1ccccc1)(c1ccccc1)c1ccccc1: > 100 µM
